- experimental_target: T1, hRIG-I (human, UniProt O95786 1-925)
- T1 sequence: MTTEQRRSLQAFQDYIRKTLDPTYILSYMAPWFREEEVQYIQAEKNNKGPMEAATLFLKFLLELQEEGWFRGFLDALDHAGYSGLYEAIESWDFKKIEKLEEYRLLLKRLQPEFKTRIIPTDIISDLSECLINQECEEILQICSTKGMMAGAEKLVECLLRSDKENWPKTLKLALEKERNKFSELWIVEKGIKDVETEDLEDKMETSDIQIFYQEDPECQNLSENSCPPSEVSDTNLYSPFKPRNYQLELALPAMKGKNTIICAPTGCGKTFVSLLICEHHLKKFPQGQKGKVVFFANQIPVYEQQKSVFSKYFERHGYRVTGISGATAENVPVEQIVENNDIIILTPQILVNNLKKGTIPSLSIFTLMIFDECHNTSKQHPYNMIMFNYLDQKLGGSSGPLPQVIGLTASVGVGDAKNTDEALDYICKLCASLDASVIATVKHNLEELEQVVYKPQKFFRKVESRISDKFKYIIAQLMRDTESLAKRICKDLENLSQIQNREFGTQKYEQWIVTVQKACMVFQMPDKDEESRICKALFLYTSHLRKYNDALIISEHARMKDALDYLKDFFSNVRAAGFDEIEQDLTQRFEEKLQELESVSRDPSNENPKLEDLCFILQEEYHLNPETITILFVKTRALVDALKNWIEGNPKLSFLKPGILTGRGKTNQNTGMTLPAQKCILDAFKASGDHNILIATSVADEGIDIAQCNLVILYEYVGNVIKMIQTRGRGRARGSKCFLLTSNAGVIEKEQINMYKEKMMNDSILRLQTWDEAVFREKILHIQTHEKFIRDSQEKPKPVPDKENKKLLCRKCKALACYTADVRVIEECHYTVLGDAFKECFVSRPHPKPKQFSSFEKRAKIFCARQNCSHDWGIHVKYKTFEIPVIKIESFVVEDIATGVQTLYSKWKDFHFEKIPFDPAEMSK
- measurement_protocol: fluorescence anisotropy; ADP:AlF4; Fluorescence anisotropy: 5'-FAM 12-mer annealed to unlabeled complement, protein titrated, ex 495 / em 515 nm, fit with Hill coefficient (n=1 for RIG-I); buffer, salt, pH and temperature not in the material
- assay_conditions: protein: recombinant; label: 5'-FAM on one strand; blunt
measure_name: Kd

[ask] // query Kd value for entry 5'ppp 12-mer blunt dsRNA (anisotropy) (dsRNA, 5' triphosphate) RNA 1: GGGCUCCACAUG RNA 2: CAUGUGGAGCCC
[reply] ~1 nM
